All values here come from patent US20250223300A1.

- experiment-description: Metabolic stability of liver microsomes, dog
- Type: in vitro ADME
- stated-conditions: NADPH, 0-45 min, read-out: CLint(μL/min/mg protein) Dog
- Procedure: The liver microsomes of human, rat, mouse and dog were used to study the metabolic stability of the compounds. The specific experimental steps are as follows: • (1) Add 40 μL MgCl2 and 306 μL PBS to each well of a 96-well plate, and then add 4 μL compound, with a final DMSO concentration of ≤0.5%. […] The in vitro intrinsic clearance (in vitro CLint, in μL/min/mg) was calculated from the in vitro half-life t1/2 (minutes) using the following equation (mean of replicates): […]
result-type: microsomal CLint (µL/min/mg)
Numbers only, in µL/min/mg.

# example entries with known answers
smiles-string | result-type | units-of-measure | assay-result
Cc1cc2cc(n1)-c1cnccc1OCCC[C@@H](C)Cn1c(nc3cc(C)c(N4CCC5(CC4)CCN(C4COC4)CC5)cc31)NC2=O | microsomal CLint | µL/min/mg | 10.4
Cc1cc2cc(n1)-c1cnccc1OCCCCCn1c(nc3ccc(N4CCC5(CCN(CC(C)(C)F)CC5)CC4)cc31)NC2=O | microsomal CLint | µL/min/mg | 22
Cc1cc2cc(n1)-c1cnccc1OCCC[C@@H](C)Cn1c(nc3ccc(N4CCC5(CCN(C)CC5)CC4)cc31)NC2=O | microsomal CLint | µL/min/mg | 7.9

Batch lookup, microsomal CLint per entry.
1. Cc1cc2cc(n1)-c1cnccc1OCCC[C@@H](C)Cn1c(nc3cc(F)c(N4CCC5(CCN(C)CC5)CC4)cc31)NC2=O
2. Cc1cc2cc(n1)-c1cnccc1OCCCCCn1c(nc3ccc(N4CCC5(CCN(C)CC5)CC4)cc31)NC2=O
3. Cc1cc2cc(n1)-c1cnccc1OCCC[C@@H](C)Cn1c(nc3ccc(N4CCC5(CC4)CCN(C4COC4)CC5)cc31)NC2=O
4. Cc1cc2cc(n1)-c1cnccc1OCCCCCn1c(nc3cc(C)c(N4CCC5(CCN(C)CC5)CC4)cc31)NC2=O

[out]
1. 2.2
2. 8.9
3. 24
4. 4.2

[in] I would be grateful if you could share the reported microsomal CLint for `Cc1cc2cc(n1)-c1cnccc1OCCC[C@@H](C)Cn1c(nc3cc(F)c(N4CCC5(CC4)CCN(C4COC4)CC5)cc31)NC2=O` .
[out] 20.6
